Reference source for all entries: patent US20170217976A1

# system: DOR (Rattus norvegicus)
# Construct: from tissue
# Sequence (P33533 whole entry): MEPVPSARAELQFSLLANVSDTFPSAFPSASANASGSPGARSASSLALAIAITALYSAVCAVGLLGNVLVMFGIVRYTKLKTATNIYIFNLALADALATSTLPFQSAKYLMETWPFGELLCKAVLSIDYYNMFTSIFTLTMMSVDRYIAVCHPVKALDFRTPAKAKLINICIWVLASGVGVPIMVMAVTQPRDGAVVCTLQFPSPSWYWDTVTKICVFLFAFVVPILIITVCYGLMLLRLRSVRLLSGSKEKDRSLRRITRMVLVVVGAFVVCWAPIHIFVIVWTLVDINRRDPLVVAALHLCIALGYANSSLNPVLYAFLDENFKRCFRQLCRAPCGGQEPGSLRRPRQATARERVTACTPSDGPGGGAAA
# experiment-description: Opioid receptor binding, DOR, rat brain membranes
# assay-conditions: Binding Ki (nM) DOR, in vitro binding assay, rat brain membranes
assay-metric: Ki
Form field: result (number plus unit)

Q: Report Ki for CO[C@@]12CC[C@H](NCCCC(=O)OC(C)(C)C)[C@@H]3Oc4c(O)ccc5c4[C@@]31CCN(C)[C@@H]2C5 [15-t-Bu ester]
A: 7.99 nM

Q: Look up and report measured Ki for this entry: CO[C@@]12CC[C@@H](N[C@@H](CCC(N)=O)C(=O)O)[C@@H]3Oc4c(O)ccc5c4[C@@]31CCN(C)[C@@H]2C5 [Compound 18]
A: 4.87 nM

Q: Consider the compound CCC(C)C(NC1CCC2(OC)C3Cc4ccc(O)c5c4C2(CCN3C)C1O5)C(=O)OC(C)(C)C (single isomer, unassigned) [43-t-Bu ester] . State its measured Ki.
A: 2.12 nM

Q: Please give the documented Ki of COC12CCC(NC(C)C(=O)O)C3Oc4c(O)ccc5c4C31CCN(C)C2C5 (single isomer, unassigned) [Compound 2]
A: 7.71 nM

Q: Indicate the recorded Ki value for this compound: CO[C@@]12CC[C@H](N[C@@H](CC(C)C)C(=O)O)[C@@H]3Oc4c(O)ccc5c4[C@@]31CCN(C)[C@@H]2C5 [Compound 40]
A: 2.34 nM

Q: Tell me measured Ki for CO[C@@]12CC[C@@H](N[C@@H](CCSC)C(=O)OC(C)(C)C)[C@@H]3Oc4c(O)ccc5c4[C@@]31CCN(C)[C@@H]2C5 [24-t-Bu ester] please.
A: 0.81 nM
